Please respond with reported Activity for every item in the list.
- TGT: UniProtKB P70536
- Sequence (P70536 whole entry): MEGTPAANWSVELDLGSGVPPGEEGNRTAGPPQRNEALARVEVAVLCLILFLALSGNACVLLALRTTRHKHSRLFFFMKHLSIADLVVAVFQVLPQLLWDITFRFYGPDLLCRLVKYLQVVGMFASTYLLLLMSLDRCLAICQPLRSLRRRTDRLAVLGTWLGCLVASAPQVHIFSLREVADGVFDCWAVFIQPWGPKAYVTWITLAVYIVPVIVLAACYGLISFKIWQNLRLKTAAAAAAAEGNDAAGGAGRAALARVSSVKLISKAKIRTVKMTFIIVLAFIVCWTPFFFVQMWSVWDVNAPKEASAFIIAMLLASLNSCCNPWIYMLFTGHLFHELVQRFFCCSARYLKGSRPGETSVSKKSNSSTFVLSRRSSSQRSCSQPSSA
- EXPERIMENTAL PROTOCOL: Agonist activity at oxytocin receptor in virgin rat uterine horns assessed as uterotonic activity at
Bridge positions count the residues as written; N and C are the ends. Peptide text beside a SMILES is read from it.
Numbers only, in U/mg.

Example entries and their recorded answers appear below.
[
  {
    "MOLECULE": "CC[C@H](C)[C@@H]1NC(=O)[C@H](Cc2ccc(O)cc2)NC(=O)[C@@H](N)CSSC[C@@H](C(=O)N2CCC[C@H]2C(=O)N[C@@H](CC(C)C)C(=O)NCC(N)=O)NC(=O)[C@H](CC(N)=O)NC(=O)[C@H](Cc2ccccc2)NC1=O (H-CYIFNCPLG-NH2; disulfide 1-6)",
    "UNIT DESCRIPTOR": "U/mg",
    "Activity": 0.75
  },
  {
    "MOLECULE": "CSCC[C@H](NC(=O)[C@@H]1CCCN1C(=O)[C@@H]1CSSC[C@H](N)C(=O)N[C@@H](Cc2ccc(O)cc2)C(=O)N[C@@H](Cc2ccccc2)C(=O)N[C@@H](CC(C)C)C(=O)N[C@@H](CC(N)=O)C(=O)N1)C(=O)NCC(N)=O (H-CYFLNCPMG-NH2; disulfide 1-6)",
    "UNIT DESCRIPTOR": "U/mg",
    "Activity": 0.62
  },
  {
    "MOLECULE": "CC[C@H](C)[C@@H]1NC(=O)[C@H](Cc2ccc(O)cc2)NC(=O)[C@@H](N)CSSC[C@@H](C(=O)N2CCC[C@H]2C(=O)N[C@@H](CC(C)C)C(=O)NCC(N)=O)NC(=O)[C@H](CC(N)=O)NC(=O)[C@H](CC(C)C)NC1=O (H-CYILNCPLG-NH2; disulfide 1-6)",
    "UNIT DESCRIPTOR": "U/mg",
    "Activity": 13
  }
]

Attention now shifts to the item below.
What Activity value was documented for this molecule, CC(C)C[C@H](NC(=O)[C@@H]1CCCN1C(=O)[C@@H]1CSSC[C@H](N)C(=O)N[C@@H](Cc2ccc(O)cc2)C(=O)N[C@@H](Cc2ccccc2)C(=O)N[C@@H](CCC(N)=O)C(=O)N[C@@H](CC(N)=O)C(=O)N1)C(=O)NCC(N)=O (H-CYFQNCPLG-NH2; disulfide 1-6) ? 39
